# target-desc: T1, Ab-12, anti-PD-L1xCD28 non-masked antibody in Vh format
# T1 construct: also called PDL1xCD28 non-masked (Vh)
# assay-explanation: competition ELISA: peptide titrated against 5 nM Ab-12; binding of Ab-12 to captured biotinylated CD28 antigen is read
Ends that are not written are not given here.
Quick reference for pIC50 among some binders
// scale note: pIC50 = -log10(conc_M); give the bare number

Completed entries (count: 5):
>  <binder>
MDWCPIHLWHVCFN (cysteine pairing not given here; also: biotinylated, site not given here, Synthetic biotinylated peptide loaded on streptavidin biosensors) [Peptide-32]

>  <outcome-measure>
pIC50

>  <observed-measurement>
6.01

$$$$
>  <binder>
MNWCPKDIWYLCFN (cysteine pairing not given here; also: biotinylated, site not given here, Synthetic biotinylated peptide loaded on streptavidin biosensors) [Peptide-34]

>  <outcome-measure>
pIC50

>  <observed-measurement>
5.85

$$$$
>  <binder>
MDWCPRDLWHECFA (cysteine pairing not given here; also: biotinylated, site not given here, Synthetic biotinylated peptide loaded on streptavidin biosensors) [Peptide-38]

>  <outcome-measure>
pIC50

>  <observed-measurement>
6.46

$$$$
>  <binder>
MDWCPIYLWSECFN (cysteine pairing not given here; also: biotinylated, site not given here, Synthetic biotinylated peptide loaded on streptavidin biosensors) [Peptide-33]

>  <outcome-measure>
pIC50

>  <observed-measurement>
6.80

$$$$
>  <binder>
MDWCPRDLWDLCFA (cysteine pairing not given here; also: biotinylated, site not given here, Synthetic biotinylated peptide loaded on streptavidin biosensors) [Peptide-37]

>  <outcome-measure>
pIC50

>  <observed-measurement>
5.95

$$$$

Now for the binder whose pIC50 we want.
Inquiry: Which value of pIC50 has been reported for MDWCPLHMWHECFS (cysteine pairing not given here; also: biotinylated, site not given here, Synthetic biotinylated peptide loaded on streptavidin biosensors) [Peptide-35] in the records?
Reply text: 5.90

Data credit: patent US20230357447A1
